# tgt: Neuronal acetylcholine receptor; alpha4/beta2 (Homo sapiens, UniProt P17787+P43681)
# Sequence (P17787 whole entry): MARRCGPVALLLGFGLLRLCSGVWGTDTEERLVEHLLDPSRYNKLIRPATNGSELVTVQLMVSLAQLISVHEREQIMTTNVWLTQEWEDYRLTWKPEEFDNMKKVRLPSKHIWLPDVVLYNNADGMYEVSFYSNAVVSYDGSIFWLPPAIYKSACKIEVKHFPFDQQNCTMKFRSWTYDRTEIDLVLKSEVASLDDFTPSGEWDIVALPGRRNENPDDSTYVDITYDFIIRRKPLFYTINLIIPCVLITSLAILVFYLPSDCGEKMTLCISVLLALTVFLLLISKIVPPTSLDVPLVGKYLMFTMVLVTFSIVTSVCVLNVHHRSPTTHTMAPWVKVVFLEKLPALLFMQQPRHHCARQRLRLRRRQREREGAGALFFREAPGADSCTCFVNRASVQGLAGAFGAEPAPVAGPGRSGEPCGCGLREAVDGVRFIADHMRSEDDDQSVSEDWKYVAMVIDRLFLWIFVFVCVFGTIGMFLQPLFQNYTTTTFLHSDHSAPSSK
# Sequence (P43681 whole entry): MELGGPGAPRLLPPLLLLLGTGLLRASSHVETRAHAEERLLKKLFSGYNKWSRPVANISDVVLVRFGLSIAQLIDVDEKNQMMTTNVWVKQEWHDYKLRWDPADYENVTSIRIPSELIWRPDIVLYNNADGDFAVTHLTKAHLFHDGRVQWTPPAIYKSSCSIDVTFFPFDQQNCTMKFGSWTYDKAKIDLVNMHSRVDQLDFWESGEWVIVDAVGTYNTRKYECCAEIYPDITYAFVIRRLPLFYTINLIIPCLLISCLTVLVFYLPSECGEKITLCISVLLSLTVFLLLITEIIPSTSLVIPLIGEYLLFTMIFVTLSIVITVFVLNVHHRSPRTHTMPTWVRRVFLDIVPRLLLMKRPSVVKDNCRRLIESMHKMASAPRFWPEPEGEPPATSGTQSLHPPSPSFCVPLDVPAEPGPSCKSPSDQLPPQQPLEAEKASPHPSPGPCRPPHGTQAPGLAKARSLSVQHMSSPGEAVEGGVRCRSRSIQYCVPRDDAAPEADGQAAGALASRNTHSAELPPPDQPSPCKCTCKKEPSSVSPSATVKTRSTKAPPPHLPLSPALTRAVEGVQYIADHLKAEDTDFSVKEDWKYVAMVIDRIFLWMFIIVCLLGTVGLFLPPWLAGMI
# protocol-details: Agonist activity at alpha4beta2 nAChR in human SH-EP1 cells assessed as calcium flux by calcium4-based FLIPR assay
# Format: functional, cell-based
pEC50: −log10 of the molar value.
assay-readout: pEC50

* O=C(c1ccc(F)o1)N1C[C@H]2CN[C@@H](C2)C1 | 5.77
* O=C(c1ccoc1)N1CC2CNCC2C1 (stereo not drawn) | 5.24
* O=C(c1ccc(Br)o1)N1C[C@@H]2CN[C@H](C2)C1 | 4.92
* O=C(c1ccccn1)N1CC2CNCC2C1 (stereo not drawn) | 4.47
* N#Cc1coc(C(=O)N2CC3CNCC3C2)c1 (stereo not drawn) | 4.96
* O=C(C1CC1)N1CC2CNCC2C1 (stereo not drawn) | 6.33
* O=C(C1CC1)N1CC2CNCC(C2)C1 | 6.07
* O=C(c1ccccc1)N1CC2CNCC(C2)C1 | 4.00
* O=C(c1ccc(F)o1)N1C[C@@H]2CN[C@H](C2)C1 | 5.68
* O=C(c1cc(Br)co1)N1CC2CNCC2C1 (stereo not drawn) | 5.19
* O=C(c1ccc(Br)o1)N1C[C@H]2CN[C@@H](C2)C1 | 5.32
* O=C(c1occc1F)N1CC2CNCC2C1 (stereo not drawn) | 5.32
* O=C(c1ccncc1)N1CC2CNC(C2)C1 (stereo not drawn) | 4.38
* O=C(c1cc(Cl)co1)N1CC2CNCC2C1 (stereo not drawn) | 4.96
* O=C(c1ccccc1)N1CC2CNCC2C1 (stereo not drawn) | 4.44
* O=C(c1ccc(Oc2ccccc2)cc1)N1CC2CNCC2C1 (stereo not drawn) | 4.29
* O=C(c1cccnc1)N1CC2CNCC2C1 (stereo not drawn) | 4.52
* O=C(c1cc(F)co1)N1CC2CNCC2C1 (stereo not drawn) | 5.85
* N#Cc1ccoc1C(=O)N1CC2CNCC2C1 (stereo not drawn) | 4.00
* O=C(c1ccncc1)N1CC2CNCC2C1 (stereo not drawn) | 4.68
* O=C(c1cnco1)N1CC2CNCC2C1 (stereo not drawn) | 5.38
* O=C(C1CC1)N1CC2CNC(C2)C1 (stereo not drawn) | 5.77
* O=C(c1ccncc1)N1CC2CNCC(C2)C1 | 4.72
* CCOc1cncc(/C=C/CCNC)c1 | 6.77
* O=C(c1ccc(Cl)o1)N1C[C@H]2CN[C@@H](C2)C1 | 5.52
* O=C(c1ccc(Br)o1)N1CC2CNCC2C1 (stereo not drawn) | 4.66
* O=C(c1occc1Cl)N1CC2CNCC2C1 (stereo not drawn) | 4.77
* O=C(c1ccco1)N1CC2CNCC2C1 (stereo not drawn) | 5.35

====

Below, each of the molecules is paired with its reported Emax value.
# tgt: Neuronal acetylcholine receptor; alpha4/beta2 (Homo sapiens, UniProt P17787+P43681)
# protocol-details: Agonist activity at alpha4beta2 nAChR in human SH-EP1 cells assessed as calcium flux by calcium4-based FLIPR assay relative to nicotine
# Assay type: functional, cell-based
assay-readout: Emax (%)

- O=C(c1ccc(Cl)o1)N1C[C@H]2CN[C@@H](C2)C1: 92
- N#Cc1ccoc1C(=O)N1CC2CNCC2C1 (stereo not drawn): 76
- O=C(C1CC1)N1CC2CNC(C2)C1 (stereo not drawn): 100

====

# tgt: Neuronal acetylcholine receptor; alpha4/beta2 (Homo sapiens, UniProt P17787+P43681)
# protocol-details: Agonist activity at alpha4beta2 nAChR in human SH-EP1 cells assessed as calcium flux by calcium4-based FLIPR assay relative to nicotine
# Assay type: functional, cell-based
assay-readout: Emax (%)

* CCOc1cncc(/C=C/CCNC)c1 | 57
* O=C(c1ccc(Cl)o1)N1CC2CNCC2C1 (stereo not drawn) | 120
* O=C(c1ccccn1)N1CC2CNCC2C1 (stereo not drawn) | 44
* O=C(c1cc(F)co1)N1CC2CNCC2C1 (stereo not drawn) | 130
* O=C(c1ccc(F)o1)N1C[C@@H]2CN[C@H](C2)C1 | 110
* O=C(c1ccno1)N1CC2CNCC2C1 (stereo not drawn) | 150
* O=C(c1ccncc1)N1CC2CNCC2C1 (stereo not drawn) | 56
* COc1ccc(C(=O)N2CC3CNCC(C3)C2)cc1 | 6
* O=C(c1ccc(Br)o1)N1C[C@@H]2CN[C@H](C2)C1 | 27
* COc1ccc(C(=O)N2CC3CNCC3C2)cc1 (stereo not drawn) | 9
* O=C(C1CC1)N1C[C@H]2CN[C@@H](C2)C1 | 100
* O=C(c1ccco1)N1CC2CNCC(C2)C1 | 65
* O=C(c1ccco1)N1C[C@@H]2CN[C@H](C2)C1 | 36
* O=C(c1occc1Cl)N1CC2CNCC2C1 (stereo not drawn) | 79
* O=C(c1ccncc1)N1CC2CNC(C2)C1 (stereo not drawn) | 8
* O=C(C1CC1)N1C[C@@H]2CN[C@H](C2)C1 | 130
* O=C(c1ncco1)N1CC2CNCC2C1 (stereo not drawn) | 65
* O=C(c1ccc(F)o1)N1C[C@H]2CN[C@@H](C2)C1 | 120
* O=C(C1CC1)N1CC2CNCC(C2)C1 | 46
* O=C(c1ccccc1)N1CC2CNCC(C2)C1 | 8
* O=C(c1ccoc1)N1CC2CNCC2C1 (stereo not drawn) | 110
* Cc1ccoc1C(=O)N1CC2CNCC2C1 (stereo not drawn) | 64
* N#Cc1ccc(C(=O)N2CC3CNCC3C2)o1 (stereo not drawn) | 90
* O=C(c1ccco1)N1CC2CNC(C2)C1 (stereo not drawn) | 65
* O=C(c1cc(Br)co1)N1CC2CNCC2C1 (stereo not drawn) | 15
* O=C(c1cc(Cl)co1)N1CC2CNCC2C1 (stereo not drawn) | 39
* O=C(c1occc1Br)N1CC2CNCC2C1 (stereo not drawn) | 90
* O=C(C1CC1)N1CC2CNCC2C1 (stereo not drawn) | 110

====

# tgt: Neuronal acetylcholine receptor; alpha4/beta2 (Homo sapiens, UniProt P17787+P43681)
# protocol-details: Agonist activity at alpha4beta2 nAChR in human SH-EP1 cells assessed as calcium flux by calcium4-based FLIPR assay
# Assay type: functional, cell-based
Collected EC50 values appear next to each entry.
assay-readout: EC50 (µM)

• COc1ccc(C(=O)N2CC3CNCC3C2)cc1 (stereo not drawn) = 43
• O=C(c1ccc(Cl)o1)N1CC2CNCC2C1 (stereo not drawn) [AZD1446] = 4.9
• O=C(C1CC1)N1C[C@H]2CN[C@@H](C2)C1 = 1.7
• O=C(c1occc1Br)N1CC2CNCC2C1 (stereo not drawn) = 4.2
• O=C(c1ccc(F)o1)N1CC2CNCC2C1 (stereo not drawn) = 5.8
• N#Cc1ccc(C(=O)N2CC3CNCC3C2)o1 (stereo not drawn) = 24
• O=C(c1ccco1)N1CC2CNCC(C2)C1 = 1.9
• O=C(c1ccno1)N1CC2CNCC2C1 (stereo not drawn) = 6.8
• COc1ccc(C(=O)N2CC3CNCC(C3)C2)cc1 = 4.3
• Cc1ccoc1C(=O)N1CC2CNCC2C1 (stereo not drawn) = 14
• O=C(c1ccco1)N1CC2CNC(C2)C1 (stereo not drawn) = 2.6
• O=C(c1ccco1)N1C[C@@H]2CN[C@H](C2)C1 = 7.4
• O=C(c1ncco1)N1CC2CNCC2C1 (stereo not drawn) = 31

====

# tgt: Neuronal acetylcholine receptor; alpha4/beta2 (Homo sapiens, UniProt P17787+P43681)
# protocol-details: Agonist activity at alpha4beta2 nAChR in human SH-EP1 cells assessed as calcium flux by calcium4-based FLIPR assay relative to nicotine
# Assay type: functional, cell-based
Emax values, listed per item
assay-readout: Emax (%)

• O=C(c1ccc(Br)o1)N1CC2CNCC2C1 (configuration not stated) = 40
• O=C(c1ccco1)N1C[C@H]2CN[C@@H](C2)C1 = 83
• O=C(c1occc1F)N1CC2CNCC2C1 (configuration not stated) = 96
• O=C(c1ccco1)N1CC2CNCC2C1 (configuration not stated) = 170
• O=C(c1ccc(F)o1)N1CC2CNCC2C1 (configuration not stated) = 140
• Cc1ccc(C(=O)N2CC3CNCC3C2)o1 (configuration not stated) = 44
• O=C(c1ccc(Oc2ccccc2)cc1)N1CC2CNCC2C1 (configuration not stated) = 9

====

Recorded Emax, one value per entry.
# tgt: Neuronal acetylcholine receptor; alpha4/beta2 (Homo sapiens, UniProt P17787+P43681)
# protocol-details: Partial agonist activity at alpha4beta2 nAChR in human SH-EP1 cells assessed as calcium flux by calcium4-based FLIPR assay relative to nicotine
# Format: functional, cell-based
assay-readout: Emax (%)

- Cc1ccc(C(=O)N2CC3CNCC(C3)C2)o1: 19
- O=C(c1ccc(Cl)o1)N1CC2CNCC(C2)C1: 47
- O=C(c1ccc(F)o1)N1CC2CNCC(C2)C1: 73
- O=C(c1occc1Br)N1CC2CNCC(C2)C1: 8
- O=C(c1cc(F)co1)N1CC2CNCC(C2)C1: 66
